# run description: counter assay for TAg ATPase ADP read-out – biochemical, ADP-Hunter, fluorescence, counter-screen (AID 2501);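 further: purified T antigen ATPase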
# condition: series mostly up to 100 µM
The campaign covered roughly 2,200 compounds. About 1,200 (55%) were called active. Cut-off not given; nearly all actives show IC50 up to about 92 µM. The set was probably picked from earlier hits. The list shows a part of the results.
Please reply with one of these outcomes: active, inactive

[
  {
    "compound": "CCOC(=O)CC(=O)CSc1nc(N)c(C#N)c(-c2ccc(Cl)cc2)c1C#N",
    "answer label": "inactive"
  }
]

Dear all, I need the recorded test outcome for `CN(C)c1ccc(NC(=O)CN2C(=O)CC(c3ccccc3)=Nc3ccccc32)cc1` , thank you.
active
